B1: POU domain, class 3, transcription factor 2, residues 356 to 411; numbered along this chain, P20265 (parent)
chain: KKRTSIEVSVKGALESHFLKCPKPSAQEITSLADSLQLEKEVVRVWFCNRRQKEKR

# Variants of: B1
# Test details: abundance fitness (aPCA) (normalised: wild type 0, dead -1); higher = more abundant; growth selection in yeast, the domain comes from the species named
# Condition label: Homo sapiens
Exercise: for every item that follows, state its recorded abundance fitness.
One number for each entry.

These solved cases illustrate the format of a correct answer.
- E7N: 0.138
- R3K: 0.054
- T4P: -0.101
- F18N: -0.856
- E39T: -0.159
- L32D: -1.03
- V43Q: -0.877
- N49L: -0.149
- A26L: -0.179
- K23A: -0.135

I would be grateful if you could provide abundance fitness for each of the following entries.
1. V42K
2. V42F
3. E54H
4. V43L
5. I6S
6. A13F
7. L19Y

1. -0.116
2. -0.042
3. -0.417
4. -0.361
5. -0.053
6. -0.019
7. -0.248

I would be grateful if you could provide abundance fitness for each of the following entries.
1. R3T
2. Q37L
3. C21E
4. W46T
5. K2Y

-0.009
-0.245
-0.072
-0.958
-0.06

All figures here come from the Human Domainome abundance scans (Beltran et al. 2025).
